IC50 values, listed per item
- subject-of-test: Mutant type EZH2(Y641F) (Homo sapiens (Human), UniProt Q15910, Y641F)
- Sequence (Q15910 whole entry Y641F): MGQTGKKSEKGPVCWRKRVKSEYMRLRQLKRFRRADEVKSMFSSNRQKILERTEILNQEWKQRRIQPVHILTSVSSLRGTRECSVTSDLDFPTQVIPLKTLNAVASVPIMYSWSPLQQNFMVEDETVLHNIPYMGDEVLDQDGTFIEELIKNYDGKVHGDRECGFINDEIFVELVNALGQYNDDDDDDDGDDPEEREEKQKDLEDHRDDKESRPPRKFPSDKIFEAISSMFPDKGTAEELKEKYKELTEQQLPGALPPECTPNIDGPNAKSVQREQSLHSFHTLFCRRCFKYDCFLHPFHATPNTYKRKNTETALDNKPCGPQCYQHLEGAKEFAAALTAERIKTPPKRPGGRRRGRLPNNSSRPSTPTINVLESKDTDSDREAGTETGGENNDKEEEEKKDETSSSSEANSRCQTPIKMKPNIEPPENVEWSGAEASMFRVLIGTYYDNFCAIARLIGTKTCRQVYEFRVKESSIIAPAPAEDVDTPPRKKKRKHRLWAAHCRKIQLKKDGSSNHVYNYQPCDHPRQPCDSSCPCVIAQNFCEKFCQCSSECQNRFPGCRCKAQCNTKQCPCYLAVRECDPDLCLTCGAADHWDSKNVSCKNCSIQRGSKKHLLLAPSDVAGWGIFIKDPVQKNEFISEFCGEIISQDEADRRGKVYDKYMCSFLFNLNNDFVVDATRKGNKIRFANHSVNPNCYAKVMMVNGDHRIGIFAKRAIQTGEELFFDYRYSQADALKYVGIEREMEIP
- Sequence (O75530 whole entry partner): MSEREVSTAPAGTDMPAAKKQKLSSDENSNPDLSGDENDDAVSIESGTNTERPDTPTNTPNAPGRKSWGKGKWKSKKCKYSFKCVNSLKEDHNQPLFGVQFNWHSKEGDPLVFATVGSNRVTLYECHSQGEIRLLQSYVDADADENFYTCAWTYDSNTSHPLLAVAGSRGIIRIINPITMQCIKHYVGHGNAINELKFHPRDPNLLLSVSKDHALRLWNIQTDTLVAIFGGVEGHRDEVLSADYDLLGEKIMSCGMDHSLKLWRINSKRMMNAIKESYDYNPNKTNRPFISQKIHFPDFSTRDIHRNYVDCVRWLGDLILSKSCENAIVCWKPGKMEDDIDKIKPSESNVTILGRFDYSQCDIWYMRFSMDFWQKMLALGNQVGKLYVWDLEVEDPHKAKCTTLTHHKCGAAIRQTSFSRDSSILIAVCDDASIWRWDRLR
- Sequence (Q15022 whole entry partner): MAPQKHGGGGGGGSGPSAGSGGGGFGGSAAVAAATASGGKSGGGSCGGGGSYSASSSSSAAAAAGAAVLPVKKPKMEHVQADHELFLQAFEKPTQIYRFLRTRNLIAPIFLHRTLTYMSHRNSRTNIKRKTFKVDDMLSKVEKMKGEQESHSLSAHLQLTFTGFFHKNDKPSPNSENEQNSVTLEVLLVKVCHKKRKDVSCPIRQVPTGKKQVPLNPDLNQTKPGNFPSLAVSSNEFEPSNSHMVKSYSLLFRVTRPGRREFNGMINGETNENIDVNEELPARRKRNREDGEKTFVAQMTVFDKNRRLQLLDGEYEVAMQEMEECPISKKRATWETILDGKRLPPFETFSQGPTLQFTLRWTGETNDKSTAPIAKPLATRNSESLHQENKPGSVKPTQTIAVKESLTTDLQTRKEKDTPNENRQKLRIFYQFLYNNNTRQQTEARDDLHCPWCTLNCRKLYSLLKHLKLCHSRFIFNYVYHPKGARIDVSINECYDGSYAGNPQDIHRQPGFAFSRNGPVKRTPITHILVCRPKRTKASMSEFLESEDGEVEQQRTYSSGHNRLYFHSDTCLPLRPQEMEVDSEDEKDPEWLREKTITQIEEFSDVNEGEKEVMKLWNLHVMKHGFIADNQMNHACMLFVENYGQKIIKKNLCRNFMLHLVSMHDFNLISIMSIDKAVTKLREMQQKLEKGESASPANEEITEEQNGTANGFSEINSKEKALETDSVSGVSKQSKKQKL
- Sequence (Q09028 whole entry partner): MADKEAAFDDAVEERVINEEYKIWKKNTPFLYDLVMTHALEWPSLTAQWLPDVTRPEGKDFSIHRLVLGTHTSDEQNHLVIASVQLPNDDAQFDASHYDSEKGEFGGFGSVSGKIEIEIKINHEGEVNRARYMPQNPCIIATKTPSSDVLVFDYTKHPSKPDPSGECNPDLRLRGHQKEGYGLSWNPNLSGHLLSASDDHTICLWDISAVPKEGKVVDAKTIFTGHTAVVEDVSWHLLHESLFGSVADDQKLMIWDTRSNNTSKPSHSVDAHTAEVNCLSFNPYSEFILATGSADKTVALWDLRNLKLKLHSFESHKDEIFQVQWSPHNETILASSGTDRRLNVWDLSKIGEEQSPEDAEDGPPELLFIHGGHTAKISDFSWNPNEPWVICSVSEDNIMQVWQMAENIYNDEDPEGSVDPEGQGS
- Sequence (Q6ZN18 whole entry partner): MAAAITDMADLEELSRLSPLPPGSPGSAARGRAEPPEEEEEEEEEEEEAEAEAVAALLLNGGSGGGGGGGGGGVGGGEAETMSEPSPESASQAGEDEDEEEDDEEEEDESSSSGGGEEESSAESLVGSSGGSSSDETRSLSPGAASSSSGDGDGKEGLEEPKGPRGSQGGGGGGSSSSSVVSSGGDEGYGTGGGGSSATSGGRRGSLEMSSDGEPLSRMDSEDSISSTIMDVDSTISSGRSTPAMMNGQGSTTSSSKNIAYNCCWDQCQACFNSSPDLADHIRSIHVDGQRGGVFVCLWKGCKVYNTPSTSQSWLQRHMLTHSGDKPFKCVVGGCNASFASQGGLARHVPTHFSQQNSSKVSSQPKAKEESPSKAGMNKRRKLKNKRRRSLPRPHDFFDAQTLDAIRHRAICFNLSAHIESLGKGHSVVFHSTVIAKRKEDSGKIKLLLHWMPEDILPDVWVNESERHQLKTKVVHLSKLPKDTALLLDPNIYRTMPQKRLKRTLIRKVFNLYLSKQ
- measurement-notes: AlphaLISA, mutant type PRC2 complex EZH2(Y641F)
- details: read-out: Mutant type EZH2(Y641F) IC50 Nanomoles per Liter
Write it as a number; the unit nM goes unstated.

[
  {
    "molecule": "CCN(c1cc(-c2ccc3c(c2)NC(=O)C32CCNCC2)cc(C(=O)NCc2c(C)cc(C)[nH]c2=O)c1C)C1CCSCC1 [Example 97]",
    "subject-of-test": "Mutant type EZH2(Y641F) (Homo sapiens (Human), UniProt Q15910, Y641F)",
    "reported-metric": "IC50",
    "reading": 0.59
  },
  {
    "molecule": "CCN(c1cc(-c2ccc3c(c2)C=CC32CCN(C(C)C)CC2)cc(C(=O)NCc2c(OC)cc(C)[nH]c2=O)c1C)C1CCOCC1 [Example 37]",
    "subject-of-test": "Mutant type EZH2(Y641F) (Homo sapiens (Human), UniProt Q15910, Y641F)",
    "reported-metric": "IC50",
    "reading": 0.54
  },
  {
    "molecule": "CCN(c1cc(-c2ccc3c(c2)C2(CCOCC2)C(=O)N3C)cc(C(=O)NCc2c(C)cc(C)[nH]c2=O)c1C)C1CCOCC1 [Example 83]",
    "subject-of-test": "Mutant type EZH2(Y641F) (Homo sapiens (Human), UniProt Q15910, Y641F)",
    "reported-metric": "IC50",
    "reading": 1.48
  }
]

Which IC50 reading was recorded for the molecule CCN(c1cc(-c2ccc3c(c2)NC(=O)C32CCOCC2)cc(C(=O)NCc2c(C)cc(C)[nH]c2=O)c1C)C1CCSCC1 [Example 95] ?
0.53

Which IC50 reading was recorded for the molecule CCN(c1cc(-c2ccc3c(c2)C(=O)C2(CCN(C)CC2)C3)cc(C(=O)NCc2c(C)cc(C)[nH]c2=O)c1C)C1CCOCC1 [Example 107] ?
0.86

Which IC50 reading was recorded for the molecule CCN(c1cc(-c2ccc3c(c2)NC(=O)C32CCS(=O)(=O)CC2)cc(C(=O)NCc2c(C)cc(C)[nH]c2=O)c1C)C1CCOCC1 [Example 90] ?
0.73
